Values compiled from ChEMBL document CHEMBL4321847.

Assay: in vivo
Details: rat
Description: Half life in rat at 3 mg/kg, iv or 10 mg/kg, po
VALUE_TYPE: half-life (h)

[
  {
    "COMPOUND": "O=C(O)c1ccc2c(c1)CCCC(c1ccc(Cl)cc1Cl)=C2c1ccc(O[C@H]2CCN(CCCF)C2)cc1 [AMCENESTRANT]",
    "OBSERVED_MEASUREMENT": 4.13
  }
]

====

Experiment: in vitro
Conditions: rat, microsomes
Description: Metabolic stability in rat microsomes assessed as total metabolism
VALUE_TYPE: metabolised (%)

[
  {
    "SMILES_STR": "Oc1ccc(C2=C(c3ccc(O[C@H]4CCN(CCCF)C4)cc3)c3cc(O)ccc3CCC2)cc1",
    "OBSERVED_MEASUREMENT": 58
  },
  {
    "SMILES_STR": "Oc1ccc2c(c1)CCCC(c1ccccc1Cl)=C2c1ccc(O[C@H]2CCN(CCCF)C2)cc1",
    "OBSERVED_MEASUREMENT": 53
  },
  {
    "SMILES_STR": "O=C(O)c1ccc2c(c1)CCCC(c1ccc(OC(F)(F)F)cc1)=C2c1ccc(O[C@H]2CCN(CCCF)C2)cc1",
    "OBSERVED_MEASUREMENT": 2
  },
  {
    "SMILES_STR": "Oc1ccc2c(c1)CCCC(c1cccnc1)=C2c1ccc(O[C@H]2CCN(CCCF)C2)cc1",
    "OBSERVED_MEASUREMENT": 80
  },
  {
    "SMILES_STR": "Oc1ccc2c(c1)CCCC(c1ccccc1)=C2c1ccc(O[C@H]2CCN(CCCF)C2)cc1",
    "OBSERVED_MEASUREMENT": 53
  },
  {
    "SMILES_STR": "Oc1ccc(C2=C(c3ccc(O[C@H]4CCN(CCCF)C4)cc3)c3ccc(O)cc3CCC2)cc1",
    "OBSERVED_MEASUREMENT": 48
  },
  {
    "SMILES_STR": "Oc1ccc2c(c1)CCCC(c1ccc3[nH]ccc3c1)=C2c1ccc(O[C@H]2CCN(CCCF)C2)cc1",
    "OBSERVED_MEASUREMENT": 75
  },
  {
    "SMILES_STR": "O=C(O)c1ccc2c(c1)CCCC(c1ccccc1Cl)=C2c1ccc(O[C@H]2CCN(CCCF)C2)cc1",
    "OBSERVED_MEASUREMENT": 4
  },
  {
    "SMILES_STR": "Oc1ccc2c(c1)CCCC(c1ccc3[nH]ncc3c1)=C2c1ccc(O[C@H]2CCN(CCCF)C2)cc1",
    "OBSERVED_MEASUREMENT": 74
  }
]

====

Assay: physchem
Settings: buffer, pH 7.4
Description: Lipophilicity, logD of the compound in phosphate buffer at pH 7.4
Entry flag: true (1) if logD reaches 3; false (0) if it does not.

[
  {
    "SMILES_STR": "Oc1ccc2c(c1)CCCC(c1ccc(Cl)cc1Cl)=C2c1ccc(O[C@H]2CCN(CCCF)C2)cc1",
    "ASSIGNED_CLASS": "true (1)"
  },
  {
    "SMILES_STR": "Oc1ccc2c(c1)CCCC(c1ccc(F)cc1Cl)=C2c1ccc(O[C@H]2CCN(CCCF)C2)cc1",
    "ASSIGNED_CLASS": "true (1)"
  },
  {
    "SMILES_STR": "O=C(O)c1ccc2c(c1)CCCC(c1ccc(SC(F)(F)F)cc1)=C2c1ccc(O[C@H]2CCN(CCCF)C2)cc1",
    "ASSIGNED_CLASS": "true (1)"
  },
  {
    "SMILES_STR": "Oc1ccc2c(c1)CCCC(c1cccnc1)=C2c1ccc(O[C@H]2CCN(CCCF)C2)cc1",
    "ASSIGNED_CLASS": "false (0)"
  },
  {
    "SMILES_STR": "O=C(O)c1ccc2c(c1)CCCC(c1ccccc1Cl)=C2c1ccc(O[C@H]2CCN(CCCF)C2)cc1",
    "ASSIGNED_CLASS": "false (0)"
  },
  {
    "SMILES_STR": "O=C(O)c1ccc2c(c1)CCCC(c1ccc(Cl)cc1)=C2c1ccc(O[C@H]2CCN(CCCF)C2)cc1",
    "ASSIGNED_CLASS": "false (0)"
  },
  {
    "SMILES_STR": "O=C(O)c1ccc2c(c1)CCCC(c1ccc(OC(F)(F)F)cc1)=C2c1ccc(O[C@H]2CCN(CCCF)C2)cc1",
    "ASSIGNED_CLASS": "true (1)"
  }
]
